Data credit: patent US20170369590A1

Biological target: human epidermal growth factor receptor 2 (HER2), membrane-bound on cells (human, UniProt P04626 23-1255)
Assay: cell-based or functional assay
Answer each item with its documented EC50 of cell kill, A431, anti-kappa-ETA'-conjugated.

BINDER	OBSERVED
HuMab 153 (antibody, V domains shown) VH: QVQLVESGGGVVQPGRSLRLSCAASGFTFSDYVIHWVRQAPGKGLEWVTVISYDGSNKYYADSVKGRFTISRDNSKNTLYLQMNSLSAEDTAMYYCARGGITGTTGVFDYWGQGTLVTVSS VL: DIQMTQSPSSLSASVGDRVTITCRASQGISSWLAWYQQKPEKAPKSLIYDASSLQSGVPSRFSGSGYGTDFSLTISSLQPEDFAIYYCQQYKSYPITFGQGTRLEIK	~0.0101 mg/L

Give one value of EC50 of cell kill, A431, anti-kappa-ETA'-conjugated per listed binder.
1. HuMab 129 (antibody, V domains shown) VH: QVQLVESGGGVVQPGRSLRLSCAASGFTFSTFAIHWVRQAPGKGLEWVAVISYDGGHKFYADSVKGRFTISRDNSKNTLYLQMNSLRAEDTAMYYCARGLGVWGAFDYWGQGTLVTVSS VL: EIVLTQSPATLSLSPGERATLSCRASQSVSSYLAWYQQKPGQAPRLLIYDASNRATGIPARFSGSGSGTDFTLTISSLEPEDFAVYYCQQRSNWWTFGQGTKVEIK
2. HuMab 091 (antibody, V domains shown, also called TH1014-091; PC1014-091) VH: QVQLQQWGAGLLKPSETLSLTCAVSGGSFSGYYWTWIRQPPGKGLEWIGEIYHSGDTNYNPSLKSRVTISVDTSKNQFSLKLYSVTAADTAVYYCARLYFGSGIYYLDYWGQGTLVTVSS VL: DIQMTQSPSSLSASVGDRVTITCRASQGISSWLVWYQQKPEKAPKSLIYAASSLQSGVPSRFSGSGSGTDFTLTISSLQPEDFATYYCQQYNSFPPTFGQGTKVEIK

Result block:
1. ~0.0106 mg/L
2. ~0.00986 mg/L
